# experiment summary: Testosterone solubility in aqueous media (SSF) containing various CIAs
# Type: physicochemical
# assay setup: Simulated Saliva Fluid (SSF) containing CIA, aqueous with cosolvent or surfactant or cyclodextrin, thermodynamic from solid, Solubility of Testosterone in CIA Containing SSF, SSF with 0.5% vitamin E-TPGS
measure: solubility (µg/mL)

substance smiles: C[C@]12CC[C@H]3[C@@H](CCC4=CC(=O)CC[C@@]43C)[C@@H]1CC[C@@H]2O
recorded value: 90.1

* * *

# experiment summary: Testosterone solubility in aqueous media (SSF) containing various CIAs
# Assay type: physicochemical
# assay setup: Simulated Saliva Fluid (SSF) containing CIA, aqueous with cosolvent or surfactant or cyclodextrin, thermodynamic from solid, Solubility of Testosterone in CIA Containing SSF, SSF with 20% polyethylene glycol

substance smiles: C[C@]12CC[C@H]3[C@@H](CCC4=CC(=O)CC[C@@]43C)[C@@H]1CC[C@@H]2O
unit of measurement: µg/mL
solubility: 69.4

* * *

# experiment summary: Testosterone solubility in aqueous media (SSF) containing various CIAs
# Type: physicochemical
# assay setup: Simulated Saliva Fluid (SSF) containing CIA, aqueous with cosolvent or surfactant or cyclodextrin, thermodynamic from solid, Solubility of Testosterone in CIA Containing SSF, SSF with 5% polyethylene glycol

substance smiles: C[C@]12CC[C@H]3[C@@H](CCC4=CC(=O)CC[C@@]43C)[C@@H]1CC[C@@H]2O
solubility [µg/mL]: 32

* * *

# experiment summary: Testosterone solubility in aqueous media (SSF) containing various CIAs
# Format: physicochemical
# assay setup: Simulated Saliva Fluid (SSF) containing CIA, aqueous with cosolvent or surfactant or cyclodextrin, thermodynamic from solid, Solubility of Testosterone in CIA Containing SSF, saturated CIA solution, 0.34 g/mL of lauroyl polyoxyl-32 glycerides in SSF

molecule: C[C@]12CC[C@H]3[C@@H](CCC4=CC(=O)CC[C@@]43C)[C@@H]1CC[C@@H]2O [Testosterone]
solubility / µg/mL: 2370

* * *

# experiment summary: Testosterone solubility in aqueous media (SSF) containing various CIAs
# Format: physicochemical
# assay setup: Simulated Saliva Fluid (SSF) containing CIA, aqueous with cosolvent or surfactant or cyclodextrin, thermodynamic from solid, Solubility of Testosterone in CIA Containing SSF, SSF with 10% vitamin E-TPGS

compound: C[C@]12CC[C@H]3[C@@H](CCC4=CC(=O)CC[C@@]43C)[C@@H]1CC[C@@H]2O [Testosterone]
solubility / µg/mL: 1210

* * *

# experiment summary: Testosterone solubility in aqueous media (SSF) containing various CIAs
# Format: physicochemical
# assay setup: Simulated Saliva Fluid (SSF) containing CIA, aqueous with cosolvent or surfactant or cyclodextrin, thermodynamic from solid, Solubility of Testosterone in CIA Containing SSF, SSF with 20% lauroyl polyoxyl-32 glycerides
measure: solubility (µg/mL)

compound: C[C@]12CC[C@H]3[C@@H](CCC4=CC(=O)CC[C@@]43C)[C@@H]1CC[C@@H]2O [Testosterone]
recorded value: 1350

* * *

# experiment summary: Testosterone solubility in aqueous media (SSF) containing various CIAs
# Format: physicochemical
# assay setup: Simulated Saliva Fluid (SSF) containing CIA, aqueous with cosolvent or surfactant or cyclodextrin, thermodynamic from solid, Solubility of Testosterone in CIA Containing SSF, SSF with 5% vitamin E-TPGS

molecule: C[C@]12CC[C@H]3[C@@H](CCC4=CC(=O)CC[C@@]43C)[C@@H]1CC[C@@H]2O [Testosterone]
unit of measurement: µg/mL
solubility: 600
